System: Alcohol dehydrogenase (Equus caballus, UniProt P00327+P00328)
Protocol Description: Inhibitory activity against horse liver alcohol dehydrogenase (ADH)
We begin with a simple list: items and their reported Log 1/Ki.
// response body must contain only the number

Compound	Property	Value
NC(=O)CBr	Log 1/Ki	2.24
NC(=O)CI [IODOACETAMIDE]	Log 1/Ki	2.72
NC(=O)CF [MONOFLUOROACETAMIDE]	Log 1/Ki	1.41
NC(=O)CCl	Log 1/Ki	2.12
NC(=O)C(Cl)(Cl)Cl	Log 1/Ki	2.07
CCCOc1ccc(CC(N)=O)cc1	Log 1/Ki	4.6
CC(C)CCOc1ccc(CC(N)=O)cc1	Log 1/Ki	5.22
O=CNCc1ccc(O)cc1	Log 1/Ki	5.75
NC(=O)Cc1ccc(I)cc1	Log 1/Ki	5.1
NC(=O)C(F)F	Log 1/Ki	1.12

Input: # value lookup — system Alcohol dehydrogenase (Equus caballus, UniProt P00327+P00328), readout Log 1/Ki, item C=C(C)C(N)=O
Output: 3.02

Input: # value lookup — system Alcohol dehydrogenase (Equus caballus, UniProt P00327+P00328), readout Log 1/Ki, item CCCCCCc1ccc(CNC=O)cc1
Output: 7.58

Input: # value lookup — system Alcohol dehydrogenase (Equus caballus, UniProt P00327+P00328), readout Log 1/Ki, item COc1ccc(CC(N)=O)cc1
Output: 4.15
